Recorded values, source the Human Domainome abundance scans (Beltran et al. 2025).

B1: Peroxisome proliferator-activated receptor delta, residues 71 to 145; numbered along this chain, Q03181 (parent)
chain: NMECRVCGDKASGFHYGVHACEGCKGFFRRTIRMKLEYEKCERSCKIQKKNRNKCQYCRFQKCLALGMSHNAIRF

Variants of: B1
Assay: abundance fitness (aPCA) (normalised: wild type 0, dead -1); higher = more abundant; growth selection in yeast, the domain comes from the species named
Settings: Homo sapiens
Decide by abundance fitness: equal to or exceeding -0.2 means MET, less means NOT MET.

Consider the following illustrative entries.
CHANGES: R29G
ASSIGNED CLASS: MET
//
CHANGES: C21W
ASSIGNED CLASS: NOT MET
//
CHANGES: R52W
ASSIGNED CLASS: NOT MET
//
CHANGES: L64H
ASSIGNED CLASS: NOT MET
//
CHANGES: R52F
ASSIGNED CLASS: MET
//
CHANGES: L64I
ASSIGNED CLASS: MET

Could you verify whether the entry K40T shows abundance fitness of no less than -0.2?
MET

Quick check, abundance fitness >= -0.2? C24N
NOT MET

Does abundance fitness meet or surpass -0.2 for G23M ?
MET

Please tell me: is the variant K25V at or over -0.2 in terms of abundance fitness?
MET

Could you please find out whether R5W has abundance fitness that meets -0.2 or exceeds it?
MET

Please indicate if the recorded abundance fitness for K40Y meets or exceeds -0.2.
MET

Say whether R5F shows abundance fitness of -0.2 or more.
NOT MET
